TEST_TARGET: Kv2.1 Y380T (Rattus norvegicus, UniProt P15387, Y380T/Y384T)
EXPERIMENT: TEVC of oocytes expressing Y380T mutant Kv2.1
RECORDED_CONDITIONS: Y380T mutation in Kv2.1
pIC50: −log10 of the molar value.

{"columns": ["STRUCTURE_NOTATION", "pIC50"],
 "data": [
  ["c1cc(C[N+]23CCN(CC2)CC3)ccc1C[N+]12CCN(CC1)CC2", 3.73]
]}

----------
Reported IC50 by item:
TEST_TARGET: Kv2.1 (Rattus norvegicus)
Construct: expressed in transfected cells; host or cells: Xenopus laevis oocytes (cRNA injection, pGA1 vector)
Sequence (P15387 whole entry): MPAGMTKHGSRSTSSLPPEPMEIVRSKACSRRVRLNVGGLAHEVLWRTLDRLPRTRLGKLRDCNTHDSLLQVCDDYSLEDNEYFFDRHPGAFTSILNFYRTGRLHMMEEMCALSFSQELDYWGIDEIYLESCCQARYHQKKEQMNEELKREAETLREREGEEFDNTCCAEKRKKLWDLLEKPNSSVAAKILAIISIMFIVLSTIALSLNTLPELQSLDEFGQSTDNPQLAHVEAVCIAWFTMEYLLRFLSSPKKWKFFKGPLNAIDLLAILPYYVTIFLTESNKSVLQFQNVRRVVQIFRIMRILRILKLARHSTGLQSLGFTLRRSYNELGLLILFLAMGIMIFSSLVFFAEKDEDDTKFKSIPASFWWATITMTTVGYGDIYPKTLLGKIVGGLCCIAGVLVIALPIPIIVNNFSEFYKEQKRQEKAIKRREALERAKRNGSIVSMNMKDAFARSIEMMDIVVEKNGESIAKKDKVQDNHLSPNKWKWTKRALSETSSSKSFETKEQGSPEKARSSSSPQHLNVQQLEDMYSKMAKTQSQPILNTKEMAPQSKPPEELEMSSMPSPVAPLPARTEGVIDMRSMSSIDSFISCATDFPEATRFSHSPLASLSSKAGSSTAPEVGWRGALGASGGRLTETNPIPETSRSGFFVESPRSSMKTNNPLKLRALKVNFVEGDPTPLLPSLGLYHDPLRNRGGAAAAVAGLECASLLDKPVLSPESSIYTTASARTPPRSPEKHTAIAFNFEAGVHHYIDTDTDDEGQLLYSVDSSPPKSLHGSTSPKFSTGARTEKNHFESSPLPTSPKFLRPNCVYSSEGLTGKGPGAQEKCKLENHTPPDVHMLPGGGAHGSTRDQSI
EXPERIMENT: Two-electrode voltage clamp (TEVC) of Xenopus oocytes expressing Kv2.1, bath-applied compound
Assay type: cell-based
RECORDED_CONDITIONS: IC50, Kv2.1, logistic dose response fit, Example 8

{"columns": ["STRUCTURE_NOTATION", "IC50"],
 "data": [
  ["CCCCCCCCCCCCCCCC[N+]12CCN(CC1)CC2", "1.9 µM"],
  ["C(CCCC[N+]12CCN(CC1)CC2)CCC[N+]12CCN(CC1)CC2", "270 µM"]
]}
